target: alanyl aminopeptidases (APN) (Homo sapiens); experiment: Inhibition of alanyl aminopeptidase enzymatic activity, fluorogenic substrate (Ala)2-rhodamine 110; assay type: biochemical; conditions: Table 4, unstarred values; read-out: IC50APN
Sequence (P15144 whole entry, species assumed): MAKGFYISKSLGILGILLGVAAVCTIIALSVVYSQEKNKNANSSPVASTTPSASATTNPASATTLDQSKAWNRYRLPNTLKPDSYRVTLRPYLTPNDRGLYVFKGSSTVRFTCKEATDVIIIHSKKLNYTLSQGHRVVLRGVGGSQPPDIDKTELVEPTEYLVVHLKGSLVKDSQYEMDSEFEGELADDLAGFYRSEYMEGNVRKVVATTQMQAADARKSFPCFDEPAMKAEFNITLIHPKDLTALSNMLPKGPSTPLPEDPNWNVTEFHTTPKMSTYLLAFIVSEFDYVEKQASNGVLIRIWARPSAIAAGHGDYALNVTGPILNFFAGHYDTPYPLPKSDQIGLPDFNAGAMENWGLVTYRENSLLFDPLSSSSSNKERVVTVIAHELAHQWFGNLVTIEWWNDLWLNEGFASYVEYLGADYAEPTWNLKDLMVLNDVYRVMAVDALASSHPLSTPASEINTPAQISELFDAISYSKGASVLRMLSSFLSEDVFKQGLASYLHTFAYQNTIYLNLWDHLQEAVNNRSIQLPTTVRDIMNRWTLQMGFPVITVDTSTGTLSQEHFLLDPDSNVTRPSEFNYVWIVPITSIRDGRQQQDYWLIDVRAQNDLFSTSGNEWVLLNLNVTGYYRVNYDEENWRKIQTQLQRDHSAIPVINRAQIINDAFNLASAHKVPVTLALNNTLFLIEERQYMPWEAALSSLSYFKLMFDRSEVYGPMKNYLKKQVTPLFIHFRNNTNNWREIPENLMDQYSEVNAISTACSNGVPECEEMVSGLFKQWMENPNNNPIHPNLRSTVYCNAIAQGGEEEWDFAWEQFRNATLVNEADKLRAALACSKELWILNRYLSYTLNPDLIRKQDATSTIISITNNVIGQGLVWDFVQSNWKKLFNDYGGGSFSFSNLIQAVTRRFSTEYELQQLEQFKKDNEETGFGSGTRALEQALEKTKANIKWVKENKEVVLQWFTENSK
Classification by IC50 follows these ranges: A: < 20 µM; B: ≥ 20 µM and < 30 µM; C: ≥ 30 µM

Class (by measured IC50) for O=C(CCCOc1ccc(Cl)cc1Cl)N/N=C/c1ccco1 [A4.081]
B

Given O=C(COc1ccc2ccccc2c1Br)N/N=C/c1ccco1 [A4.137] , name the class its IC50 places it in.
C

Category lookup for the compound O=C(N/N=C/c1ccco1)c1cccc(NC(=O)c2cccc(Br)c2)c1 [A4.064]
B

Textbook exercise: identify the category of the compound given here, CCN(CC)c1ccc(/C=N/NC(=O)CNC(=O)/C=C/c2ccco2)cc1 [A4.066] , according to its measured value.
B

Which IC50 category applies to O=C(CNC(=O)c1ccccc1F)N/N=C/c1ccc([N+](=O)[O-])o1 [A4.150] here?
C

Sort into band: CC1SC(N/N=C/c2ccco2)=NC1=O (stereo not drawn) [A4.089]
B

Which of the defined bands does the recorded IC50 of O=C(Cc1ccc(Br)c2ccccc12)N/N=C/c1ccc([N+](=O)[O-])c(O)c1 [A4.009] sit within?
A

Classify this compound: Cc1ccccc1S(=O)(=O)Nc1cccc(C(=O)N/N=C/c2ccco2)c1 [A4.049]
A

Sort into band: O=C(COc1ccc(F)cc1)N/N=C/c1ccco1 [A4.026]
A

Determine which band this compound sits in: CCN(CC)c1ccc(/C=C(\NC(=O)c2ccccc2)C(=O)N/N=C/c2ccc(O)c([N+](=O)[O-])c2)cc1 [A4.011]
A

Assign a category based on measured IC50 for Cc1cc(C)cc(OCC(=O)N/N=C/c2ccco2)c1 [A4.070] and give only the class name.
B

Class? Entry: CCOc1ccc(Br)cc1C(=O)N/N=C/c1ccco1 [A4.079]
B

---

molecular target: alanyl aminopeptidases (APN) (Homo sapiens); experiment: Inhibition of alanyl aminopeptidase enzymatic activity, fluorogenic substrate (Ala)2-rhodamine 110; format: biochemical; settings: Table 4, starred values = ID50; read-out: ID50 APN (values marked with *)
Exercise: state measured IC50 for each of the compounds provided.
Report as a plain number; the unit µM is understood.

Return IC50 for the following compound: `O=C(CNC(=O)c1ccccc1Br)N/N=C/c1ccco1`
91.2

Supply recorded IC50 for O=C(O)CC1S/C(=N/N=C/c2ccco2)NC1=O (stereo not drawn) here.
48.1

Provide measured IC50 value, entry: `Cc1ccc(OCC(=O)N/N=C/c2c(Br)cc(Br)c(O)c2Br)c(Br)c1`
54.2

Report measured IC50; entry is `C/C(=N\NC(=O)c1cc(-c2ccco2)n[nH]1)c1ccco1`
161

Using the record for `O=C(N/N=C/c1ccco1)c1cc(-c2ccccc2Cl)n[nH]1` , state its measured IC50.
75.8

Using the record for `O=C(N/N=C/c1ccco1)c1ccc([N+](=O)[O-])cc1` , state its measured IC50.
305

Annotate the compound `CC(=O)Nc1cccc(C(=O)N/N=C/c2ccc(C)o2)c1` with its measured IC50.
63.1

Fill in IC50 for record `COc1ccc(/C=N/NC(=O)CNC(=O)c2cccc(F)c2)cc1[N+](=O)[O-]`
80.4

Assign IC50 to the following record: `C/C(=N\NC(=O)c1ccn(C)n1)c1ccco1`
323

Return IC50 (reported value) for this compound: `O=C(N/N=C/c1ccco1)c1ccc(NCc2ccccc2)cc1`
294

Respond only with IC50 recorded for CC(C(=O)N/N=C/c1ccco1)n1nnc2ccccc21 (stereo not drawn)
146

Give the value of IC50 reported for the following: `O=C(CNC(=O)c1ccccc1)N/N=C/c1ccco1`
49.4

Name the recorded IC50 of the compound listed here: `Cc1cccc(C(=O)Nc2ccc(C(=O)N/N=C/c3ccco3)cc2)c1`
67.1

Using the record for `O=C(N/N=C\C=C\c1ccco1)c1cc(-c2cccs2)n[nH]1` , state its measured IC50.
132

Query IC50 for `COc1cc(C(=O)NCC(=O)N/N=C\c2ccc(C)o2)cc(OC)c1OC`
161

// Input: `Cn1cccc1CC(=O)N/N=C\c1ccco1` . Output its IC50 only.
113

Look up and state reported IC50 for `C/C(=N\NC(=O)COc1ccc(C)cc1[N+](=O)[O-])c1ccco1`
422

Give IC50 for `COc1ccc(C(=O)N/N=C\c2cc(Br)c(O)c(O)c2Br)cc1`
39.7

Please look at this compound and report its IC50: `Cc1ccc(OCC(=O)N/N=C\c2ccco2)c(C)c1`
81.8

Write down IC50 measured for item `O=C(CNC(=O)c1cccc(F)c1)N/N=C/c1ccco1`
155

Write down IC50 measured for item `COc1ccc(CSCC(=O)N/N=C/c2ccco2)cc1`
66
